This collection of values is drawn from ChEMBL document CHEMBL5247649.

TARGET_DESC: Dual specificity tyrosine-phosphorylation-regulated kinase 4 (Homo sapiens)
Sequence (Q9NR20 whole entry): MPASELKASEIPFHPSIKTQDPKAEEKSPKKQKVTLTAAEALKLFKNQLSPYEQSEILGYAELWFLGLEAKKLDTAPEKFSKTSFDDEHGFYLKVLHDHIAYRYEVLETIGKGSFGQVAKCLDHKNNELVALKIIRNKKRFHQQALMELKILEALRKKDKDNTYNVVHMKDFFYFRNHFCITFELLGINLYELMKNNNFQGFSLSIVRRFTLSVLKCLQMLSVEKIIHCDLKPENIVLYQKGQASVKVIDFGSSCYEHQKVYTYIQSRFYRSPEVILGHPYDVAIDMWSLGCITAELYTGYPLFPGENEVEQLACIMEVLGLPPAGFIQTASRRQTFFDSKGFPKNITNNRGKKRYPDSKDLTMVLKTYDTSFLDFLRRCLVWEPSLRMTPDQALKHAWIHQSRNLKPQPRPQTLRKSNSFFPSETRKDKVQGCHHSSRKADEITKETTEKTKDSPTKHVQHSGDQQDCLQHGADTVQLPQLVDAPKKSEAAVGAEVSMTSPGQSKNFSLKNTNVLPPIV
ASSAY: biochemical
pIC50: −log10 of the molar value.
PROPERTY_LABEL: pIC50

In the examples that follow, each entry is paired with its recorded pIC50.
CN1C(=O)/C(=C/c2ccc3c(c2)OCO3)N=C1N [LEUCETTAMINE B] :: 5.20
COc1ccc2nc3c(CO)cc(OC)cc3c(SC[C@H]3CCNC3)c2c1 :: 5.71
CCN1/C(=C/C(C)=O)Sc2ccc(O)cc21 :: 6.05
O=C(O[C@@H]1Cc2c(O)cc(O)cc2O[C@@H]1c1cc(O)c(O)c(O)c1)c1cc(O)c(O)c(O)c1 [EPIGALOCATECHIN GALLATE] :: 5.28

[a] O=C(O)c1ccc2c(c1)nc(Nc1cccc(Cl)c1)c1ccncc12 [SILMITASERTIB]
[b] CN(C)c1nccc(-c2cnn3ncccc23)n1
[c] O=C1NC(=Nc2c(Cl)cccc2Cl)S/C1=C\c1ccc2nccnc2c1
[d] Cc1nc2ccc(-c3cc(N)nc(N)c3)nc2n1C(C)C
[e] COC1=CC2C(=O)NC3=Cc4ccc(OC)cc4C(=C1OC)C32 (stereo not given)
Sort these compounds on pIC50 so the largest reading comes first. Put the labels in the order asked and list them.
c, d, a, e, b
